Reference source: patent US8227604B2

- experimentalSystem: D4 receptor (Homo sapiens, UniProt P21917)
- Sequence (P21917 whole entry): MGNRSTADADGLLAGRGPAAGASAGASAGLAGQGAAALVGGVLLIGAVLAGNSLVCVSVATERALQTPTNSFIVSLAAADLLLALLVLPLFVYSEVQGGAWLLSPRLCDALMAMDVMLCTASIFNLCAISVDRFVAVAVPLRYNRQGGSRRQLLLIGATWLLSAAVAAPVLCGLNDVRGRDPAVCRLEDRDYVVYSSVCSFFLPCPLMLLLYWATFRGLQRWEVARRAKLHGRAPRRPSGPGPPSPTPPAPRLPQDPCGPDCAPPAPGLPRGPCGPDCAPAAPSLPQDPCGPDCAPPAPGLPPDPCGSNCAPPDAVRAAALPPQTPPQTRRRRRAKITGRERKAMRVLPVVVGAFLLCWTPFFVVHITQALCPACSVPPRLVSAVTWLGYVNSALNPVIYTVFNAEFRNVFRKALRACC
- testDescription: Agonist potency by [3H]thymidine incorporation (mitogenesis), D4
- reportedConditions: [3H]thymidine incorporation
metricName: EC50 (nM)

>>> number("O=C(NCCCCN(CCCCN1CCN(c2ccccc2)CC1)C1CCc2ccc(O)cc2C1)c1ccccc1 (centres unmarked) [Compound 10a]")
32.2

1 = N#CCCCN(CCCCN1CCN(c2ccccc2)CC1)C1CCc2ccc(O)cc2C1 (centres unmarked) [Compound 8]
2 = O=C(NCCN(CCCCN1CCN(c2ccccc2)CC1)C1CCc2ccc(O)cc2C1)c1ccccc1 (centres unmarked) [Compound 10b]
Exercise: # query: argmin of EC50 over 1 and 2 Answer format: the label of the selected item.
Solution: 2
(2: 26.7 nM, 1: 54.8 nM)

---

- experimentalSystem: D3 receptor (Homo sapiens, UniProt P35462)
- Sequence (P35462 whole entry): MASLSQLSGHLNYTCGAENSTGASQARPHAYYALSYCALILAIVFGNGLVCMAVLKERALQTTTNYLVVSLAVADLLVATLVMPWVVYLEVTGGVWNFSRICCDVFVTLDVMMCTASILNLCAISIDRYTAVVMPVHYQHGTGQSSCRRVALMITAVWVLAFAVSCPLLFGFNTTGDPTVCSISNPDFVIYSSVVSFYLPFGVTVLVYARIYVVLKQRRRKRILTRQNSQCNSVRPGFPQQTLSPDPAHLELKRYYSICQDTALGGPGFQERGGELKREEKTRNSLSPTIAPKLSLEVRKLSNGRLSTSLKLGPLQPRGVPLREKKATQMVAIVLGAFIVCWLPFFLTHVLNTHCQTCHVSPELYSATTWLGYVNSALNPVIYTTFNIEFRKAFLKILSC
- testDescription: Inhibition constants for binding to cloned D3 receptor expressed in HEK cells, [3H]spiperone
- reportedConditions: D3 expressed in HEK cells
pKi: −log10 of the molar value.
metricName: pKi

Look over these answered cases.
>>> number("C#CCN(CCCCN1CCN(c2cccc(Cl)c2Cl)CC1)C1CCc2ccc(O)cc2C1 (stereo not drawn) [Compound 19b]")
8.44
>>> number("C#CCN(CCN1CCN(c2ccccc2)CC1)C1CCc2ccc(O)cc2C1 (stereo not drawn) [Compound 12a]")
7.85
>>> number("CCCN(CCN1CCN(c2ccccc2)CC1)C1CCc2ccc(O)cc2C1 (stereo not drawn) [Compound 15a]")
8.76
>>> number("CCCN(CCN1CCN(c2ccccc2)CC1)C1CCc2sc(N)nc2C1 (stereo not drawn)")
8.38

a = CCCN(CCCCN1CCN(c2ccccc2)CC1)C1CCc2ccc(O)cc2C1 (stereo not drawn) [Compound 15b]
b = CCCN(CCCCN1CCN(c2cccc(Cl)c2Cl)CC1)C1CCc2ccc(O)cc2C1 (stereo not drawn) [Compound 19a]
Exercise: // compare: a vs b , metric pKi, want the smaller // return label of chosen record
Solution: a

---

- experimentalSystem: D1 receptor (Homo sapiens, UniProt P21728)
- Construct: expressed in transfected cells; host or cells: LHD1 cells
- Sequence (P21728 whole entry): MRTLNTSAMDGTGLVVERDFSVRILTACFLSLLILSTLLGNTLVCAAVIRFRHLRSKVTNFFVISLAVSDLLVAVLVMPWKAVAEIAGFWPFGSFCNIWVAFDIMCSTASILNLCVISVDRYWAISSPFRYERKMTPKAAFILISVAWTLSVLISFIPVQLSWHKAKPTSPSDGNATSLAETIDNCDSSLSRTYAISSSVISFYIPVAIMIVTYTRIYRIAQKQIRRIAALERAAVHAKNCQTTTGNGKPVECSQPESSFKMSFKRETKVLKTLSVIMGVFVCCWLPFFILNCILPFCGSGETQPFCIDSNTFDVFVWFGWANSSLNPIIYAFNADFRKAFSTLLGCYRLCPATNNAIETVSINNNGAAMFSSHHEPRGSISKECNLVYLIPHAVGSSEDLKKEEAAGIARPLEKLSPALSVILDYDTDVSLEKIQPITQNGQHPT
- testDescription: Binding affinity at cloned human D1 receptor, [3H]SCH23390 (LHD1 cells)
metricName: Ki (nM)

Below, 6 compounds whose answers are already recorded.
>>> number("C#CCN(CCCCN1CCN(c2cccc(Cl)c2Cl)CC1)C1CCc2ccc(O)cc2C1 (stereo not shown) [Compound 19b]")
1720
>>> number("O=C(NCCCCN(CCCCN1CCN(c2ccccc2)CC1)C1CCc2ccc(O)cc2C1)c1ccccc1 (stereo not shown) [Compound 10a]")
3730
>>> number("N#CCCCN(CCCCN1CCN(c2ccccc2)CC1)C1CCc2ccc(O)cc2C1 (stereo not shown) [Compound 8]")
3220
>>> number("O=C(NCCN(CCCCN1CCN(c2ccccc2)CC1)C1CCc2ccc(O)cc2C1)c1ccccc1 (stereo not shown) [Compound 10b]")
2950
>>> number("CCCN(CCCCN1CCN(c2cccc(Cl)c2Cl)CC1)C1CCc2ccc(O)cc2C1 (stereo not shown) [Compound 19a]")
4060
>>> number("CCCN(CCC)C1CCc2ccc(O)cc2C1 (stereo not shown) [Compound 7-OH-DPAT, reference compound]")
2550

1 = CCCN(CCCCN1CCN(c2ccccc2)CC1)C1CCc2ccc(O)cc2C1 (stereo not shown) [Compound 15b]
2 = C#CCN(CCCCN1CCN(c2ccccc2)CC1)C1CCc2ccc(O)cc2C1 (stereo not shown) [Compound 12b]
Exercise: Form field 'greater Ki' accepts 1 or 2 ; which applies? Respond with the label that goes with your answer.
Solution: 1
(1: 6120 nM, 2: 677 nM)
